# System: MALME-3M
# assay_text: NCI screening panel, MALME-3M (Melanoma)
# Type: cell-based, human
Listing of entries alongside the reported Log10GI50.
Answer using only a numeral; do not append any unit.

CC(C)C[C@H](NC(=O)[C@H](COC(F)F)NC(=O)[C@H](COC(F)F)NC(=O)[C@H](CCc1ccccc1)NC(=O)CN1CCOCC1)C(=O)[C@@]1(C)CO1 −7.39
CC(C)C[C@H](NC(=O)[C@H](COC(F)F)NC(=O)[C@H](COC(F)F)NC(=O)[C@H](COC(F)F)NC(=O)CN1CCOCC1)C(=O)[C@@]1(C)CO1 −6.76

Next compound, please.
Query: Record request: Log10GI50 value, item `CC(C)C[C@H](NC(=O)[C@H](COC(F)F)NC(=O)CN1CCOCC1)C(=O)N[C@@H](COC(F)F)C(=O)N[C@@H](Cc1ccccc1)C(=O)[C@@]1(C)CO1`
Reply: −7.49

----------
# Test system: HCT-15
# assay_text: NCI screening panel, HCT-15 (Colon Cancer)
# Type: cell-based, human
measurement_name: Log10GI50

Recorded Log10GI50, per entry:
CC(C)C[C@H](NC(=O)[C@H](COC(F)F)NC(=O)CN1CCOCC1)C(=O)N[C@@H](Cc1ccccc1)C(=O)N[C@@H](Cc1ccccc1)C(=O)[C@@]1(C)CO1 −6.51
CC(C)C[C@H](NC(=O)[C@H](COC(F)F)NC(=O)CN1CCOCC1)C(=O)N[C@@H](COC(F)F)C(=O)N[C@@H](Cc1ccccc1)C(=O)[C@@]1(C)CO1 −5.91
CC(C)C[C@H](NC(=O)[C@H](Cc1ccccc1)NC(=O)[C@H](COC(F)F)NC(=O)[C@H](COC(F)F)NC(=O)CN1CCOCC1)C(=O)[C@@]1(C)CO1 −6.00

Query: Record request: Log10GI50 value, item `CC(C)C[C@H](NC(=O)[C@H](COC(F)F)NC(=O)[C@H](COC(F)F)NC(=O)[C@H](COC(F)F)NC(=O)CN1CCOCC1)C(=O)[C@@]1(C)CO1`
Reply: −5.28

----------
# System: M14
# assay_text: NCI screening panel, M14 (Melanoma)
# Type: cell-based, human
measurement_name: Log10GI50

CC(C)C[C@H](NC(=O)[C@H](COC(F)F)NC(=O)CN1CCOCC1)C(=O)N[C@@H](COC(F)F)C(=O)N[C@@H](Cc1ccccc1)C(=O)[C@@]1(C)CO1 −6.97

Query: Record request: Log10GI50 value, item `CC(C)C[C@H](NC(=O)[C@H](COC(F)F)NC(=O)[C@H](COC(F)F)NC(=O)[C@H](COC(F)F)NC(=O)CN1CCOCC1)C(=O)[C@@]1(C)CO1`
Reply: −6.59

Query: Record request: Log10GI50 value, item `CC(C)C[C@H](NC(=O)[C@H](COC(F)F)NC(=O)CN1CCOCC1)C(=O)N[C@@H](Cc1ccccc1)C(=O)N[C@@H](CC(C)C)C(=O)[C@@]1(C)CO1`
Reply: −7.39

Query: Record request: Log10GI50 value, item `CC(C)C[C@H](NC(=O)[C@H](COC(F)F)NC(=O)CN1CCOCC1)C(=O)N[C@@H](COC(F)F)C(=O)N[C@@H](CC(C)C)C(=O)[C@@]1(C)CO1`
Reply: −7.25

Query: Record request: Log10GI50 value, item `CC(C)C[C@H](NC(=O)[C@H](COC(F)F)NC(=O)CN1CCOCC1)C(=O)N[C@@H](Cc1ccccc1)C(=O)N[C@@H](Cc1ccccc1)C(=O)[C@@]1(C)CO1`
Reply: −7.69

Query: Record request: Log10GI50 value, item `CC(C)C[C@H](NC(=O)[C@H](Cc1ccccc1)NC(=O)[C@H](COC(F)F)NC(=O)[C@H](COC(F)F)NC(=O)CN1CCOCC1)C(=O)[C@@]1(C)CO1`
Reply: −7.21

Query: Record request: Log10GI50 value, item `CC(C)C[C@H](NC(=O)[C@H](COC(F)F)NC(=O)[C@H](COC(F)F)NC(=O)[C@H](CCc1ccccc1)NC(=O)CN1CCOCC1)C(=O)[C@@]1(C)CO1`
Reply: −7.11

----------
Listing of entries alongside the reported Log10GI50.
# Test system: OVCAR-8
# assay_text: NCI screening panel, OVCAR-8 (Ovarian Cancer)
# Type: cell-based, human
Answer using only a numeral; do not append any unit.

Recorded Log10GI50, per entry:
CC(C)C[C@H](NC(=O)[C@H](COC(F)F)NC(=O)[C@H](COC(F)F)NC(=O)[C@H](COC(F)F)NC(=O)CN1CCOCC1)C(=O)[C@@]1(C)CO1 −6.31
CC(C)C[C@H](NC(=O)[C@H](COC(F)F)NC(=O)[C@H](COC(F)F)NC(=O)[C@H](CCc1ccccc1)NC(=O)CN1CCOCC1)C(=O)[C@@]1(C)CO1 −6.94
CC(C)C[C@H](NC(=O)[C@H](COC(F)F)NC(=O)CN1CCOCC1)C(=O)N[C@@H](COC(F)F)C(=O)N[C@@H](Cc1ccccc1)C(=O)[C@@]1(C)CO1 −6.67
CC(C)C[C@H](NC(=O)[C@H](COC(F)F)NC(=O)CN1CCOCC1)C(=O)N[C@@H](Cc1ccccc1)C(=O)N[C@@H](Cc1ccccc1)C(=O)[C@@]1(C)CO1 −7.25

Query: Item `CC(C)C[C@H](NC(=O)[C@H](COC(F)F)NC(=O)CN1CCOCC1)C(=O)N[C@@H](Cc1ccccc1)C(=O)N[C@@H](CC(C)C)C(=O)[C@@]1(C)CO1` with OVCAR-8 - Log10GI50?
Reply: −7.22

Query: Item `CC(C)C[C@H](NC(=O)[C@H](COC(F)F)NC(=O)CN1CCOCC1)C(=O)N[C@@H](COC(F)F)C(=O)N[C@@H](CC(C)C)C(=O)[C@@]1(C)CO1` with OVCAR-8 - Log10GI50?
Reply: −6.85

Query: Item `CC(C)C[C@H](NC(=O)[C@H](Cc1ccccc1)NC(=O)[C@H](COC(F)F)NC(=O)[C@H](COC(F)F)NC(=O)CN1CCOCC1)C(=O)[C@@]1(C)CO1` with OVCAR-8 - Log10GI50?
Reply: −6.94

----------
# Tested on: LOX IMVI
# assay_text: NCI screening panel, LOX IMVI (Melanoma)
# Type: cell-based, human
Listing of entries alongside the reported Log10LC50.
Answer using only a numeral; do not append any unit.

CC(C)C[C@H](NC(=O)[C@H](COC(F)F)NC(=O)CN1CCOCC1)C(=O)N[C@@H](Cc1ccccc1)C(=O)N[C@@H](CC(C)C)C(=O)[C@@]1(C)CO1 −7.21
CC(C)C[C@H](NC(=O)[C@H](Cc1ccccc1)NC(=O)[C@H](COC(F)F)NC(=O)[C@H](COC(F)F)NC(=O)CN1CCOCC1)C(=O)[C@@]1(C)CO1 −7.09
CC(C)C[C@H](NC(=O)[C@H](COC(F)F)NC(=O)[C@H](COC(F)F)NC(=O)[C@H](COC(F)F)NC(=O)CN1CCOCC1)C(=O)[C@@]1(C)CO1 −6.36
CC(C)C[C@H](NC(=O)[C@H](COC(F)F)NC(=O)CN1CCOCC1)C(=O)N[C@@H](COC(F)F)C(=O)N[C@@H](CC(C)C)C(=O)[C@@]1(C)CO1 −7.16
CC(C)C[C@H](NC(=O)[C@H](COC(F)F)NC(=O)[C@H](COC(F)F)NC(=O)[C@H](CCc1ccccc1)NC(=O)CN1CCOCC1)C(=O)[C@@]1(C)CO1 −7.13
CC(C)C[C@H](NC(=O)[C@H](COC(F)F)NC(=O)CN1CCOCC1)C(=O)N[C@@H](Cc1ccccc1)C(=O)N[C@@H](Cc1ccccc1)C(=O)[C@@]1(C)CO1 −7.13

Next compound, please.
Query: Record request: Log10LC50 value, item `CC(C)C[C@H](NC(=O)[C@H](COC(F)F)NC(=O)CN1CCOCC1)C(=O)N[C@@H](COC(F)F)C(=O)N[C@@H](Cc1ccccc1)C(=O)[C@@]1(C)CO1`
Reply: −7.06

----------
# System: SF-268
# assay_text: NCI screening panel, SF-268 (CNS Cancer)
# Type: cell-based, human
# Method: Representative compounds of Formula I were screened using the National Cancer Institute (NCI) screening panel, which consists of a panel of human tumor cell lines, representing leukemia, melanoma, and cancers of the lung, colon, ovary, breast, prostate and renal system. […] Three dose response parameters are calculated for each experimental agent. […] The drug concentration resulting in total growth inhibition (TGI) is calculated from Ti=Tz. […]
Listing of entries alongside the reported Log10TGI50.
Answer using only a numeral; do not append any unit.

Recorded Log10TGI50, per entry:
compound	measured_on	Log10TGI50
CC(C)C[C@H](NC(=O)[C@H](Cc1ccccc1)NC(=O)[C@H](COC(F)F)NC(=O)[C@H](COC(F)F)NC(=O)CN1CCOCC1)C(=O)[C@@]1(C)CO1 [Example 11]	SF-268	−7.22
CC(C)C[C@H](NC(=O)[C@H](COC(F)F)NC(=O)[C@H](COC(F)F)NC(=O)[C@H](CCc1ccccc1)NC(=O)CN1CCOCC1)C(=O)[C@@]1(C)CO1 [Example 7]	SF-268	−7.21
CC(C)C[C@H](NC(=O)[C@H](COC(F)F)NC(=O)CN1CCOCC1)C(=O)N[C@@H](Cc1ccccc1)C(=O)N[C@@H](Cc1ccccc1)C(=O)[C@@]1(C)CO1 [Example 3]	SF-268	−7.40

Query: Record request: Log10TGI50 value, item CC(C)C[C@H](NC(=O)[C@H](COC(F)F)NC(=O)CN1CCOCC1)C(=O)N[C@@H](Cc1ccccc1)C(=O)N[C@@H](CC(C)C)C(=O)[C@@]1(C)CO1 [Example 2]
Reply: −7.20

Query: Record request: Log10TGI50 value, item CC(C)C[C@H](NC(=O)[C@H](COC(F)F)NC(=O)CN1CCOCC1)C(=O)N[C@@H](COC(F)F)C(=O)N[C@@H](CC(C)C)C(=O)[C@@]1(C)CO1 [Example 1]
Reply: −7.17

Query: Record request: Log10TGI50 value, item CC(C)C[C@H](NC(=O)[C@H](COC(F)F)NC(=O)CN1CCOCC1)C(=O)N[C@@H](COC(F)F)C(=O)N[C@@H](Cc1ccccc1)C(=O)[C@@]1(C)CO1 [Example 4]
Reply: −6.82

Query: Record request: Log10TGI50 value, item CC(C)C[C@H](NC(=O)[C@H](COC(F)F)NC(=O)[C@H](COC(F)F)NC(=O)[C@H](COC(F)F)NC(=O)CN1CCOCC1)C(=O)[C@@]1(C)CO1 [Example 17]
Reply: −6.47
